Recorded measurements of pIC50, one per entry
biological target: SIRT1 (Homo sapiens, UniProt Q96EB6); assay: SIRT1 deacetylation of Trp 5-mer peptide, OAADPr mass spec assay; conditions: Trp SIRT1_IC50, Trp 5-mer peptide; class symbols
Sequence (Q96EB6 whole entry): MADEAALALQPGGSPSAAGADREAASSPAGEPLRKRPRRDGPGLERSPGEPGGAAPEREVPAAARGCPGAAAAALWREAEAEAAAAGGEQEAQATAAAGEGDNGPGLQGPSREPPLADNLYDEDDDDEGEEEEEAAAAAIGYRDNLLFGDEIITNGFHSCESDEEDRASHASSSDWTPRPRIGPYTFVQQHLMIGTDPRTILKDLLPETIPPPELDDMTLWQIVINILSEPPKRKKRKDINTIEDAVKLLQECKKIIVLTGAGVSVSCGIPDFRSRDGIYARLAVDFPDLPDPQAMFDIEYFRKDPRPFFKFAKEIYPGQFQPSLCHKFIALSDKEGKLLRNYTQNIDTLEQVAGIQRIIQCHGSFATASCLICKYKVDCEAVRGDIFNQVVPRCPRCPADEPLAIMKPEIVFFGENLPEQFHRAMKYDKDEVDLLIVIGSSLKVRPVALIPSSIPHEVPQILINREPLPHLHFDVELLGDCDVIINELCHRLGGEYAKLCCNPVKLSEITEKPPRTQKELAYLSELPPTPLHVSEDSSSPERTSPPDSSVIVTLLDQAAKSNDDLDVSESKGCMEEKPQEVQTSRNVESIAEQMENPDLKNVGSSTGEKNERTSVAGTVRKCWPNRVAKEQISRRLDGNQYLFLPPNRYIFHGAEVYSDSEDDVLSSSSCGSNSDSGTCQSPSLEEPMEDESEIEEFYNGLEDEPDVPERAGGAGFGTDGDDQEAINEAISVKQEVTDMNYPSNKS
pIC50: −log10 of the molar value.

{"compound": "NC(=O)c1cc2ncnc(N3CCN(CCNC(=O)C4CCCC4)CC3)c2s1 [Compound 63]", "tgt": "SIRT1 (Homo sapiens, UniProt Q96EB6)", "pIC50": "> 6.00"}
{"compound": "NC(=O)c1cc2ncnc(N3CCC(CCN4CCCC4)CC3)c2s1 [Compound 34]", "tgt": "SIRT1 (Homo sapiens, UniProt Q96EB6)", "pIC50": "> 6.00"}
{"compound": "CCNC(=O)c1cccc(C(=O)NCCC2CCN(c3ncnc4cc(C(N)=O)sc34)CC2)c1 [Compound 11a]", "tgt": "SIRT1 (Homo sapiens, UniProt Q96EB6)", "pIC50": "> 6.00"}
{"compound": "NC(=O)c1cc2nccc(N3CCC(CN4CCCC4)CC3)c2s1 [Compound 105]", "tgt": "SIRT1 (Homo sapiens, UniProt Q96EB6)", "pIC50": "5.00 to 6.00"}
{"compound": "CC1(C)COC(C2CCN(c3ncnc4cc(C(N)=O)sc34)CC2)OC1 [Compound 78]", "tgt": "SIRT1 (Homo sapiens, UniProt Q96EB6)", "pIC50": "5.00 to 6.00"}

Sourced from patent US20160002273A1
